// data source = patent US11795177B2

- Study system: ALDH1A1 enzyme (Homo sapiens, UniProt P00352)
- Assay summary: ALDH1A1 enzymatic assay (in vitro)
- Type: biochemical
- Conditions: ALDH1A1 enzyme 20 nM, NAD+ 1 mM, propionaldehyde 80 μM; read-out: ALDH1A1 IC50
Where a name gives a salt, the structure may show the parent alone.
Catalogue of IC50 values

Bench note: what IC50 did COc1ccc2ncc(C(=O)N3CCN(C(C)=O)CC3)c(N3CCC4(CC3)OCCO4)c2c1 show?
< 0.5 µM

Please report the recorded IC50 for COc1ccc2ncc(C(=O)N3CCN(S(C)(=O)=O)CC3)c(N3CCC4(CC3)OCCO4)c2c1 [Example 13, TFA] .
< 0.5 µM

# lookup: IC50 of O=C(c1cnc2ccc(F)cc2c1N1CCC2(CC1)OCCO2)N1CCC(F)(F)CC1
< 0.5 µM

Field request: IC50 | item: COc1ccc2ncc(C(=O)N3CCN(C(=O)C4CC4)CC3)c(N3CCC4(CC3)CC4)c2c1
< 0.5 µM

Value lookup for IC50; key = CC1(O)CCN(C(=O)c2cnc3ccc(F)cc3c2-c2ccc(C3(C#N)CC3)cc2)CC1
< 0.5 µM

Look at this compound and give its reported IC50. O=C(c1cnc2ccc(F)cc2c1N1CCC2(CC1)OCCO2)N1CCOCC1
0.5 to 1 µM

----------
- Study system: ALDH1A1 enzyme (Homo sapiens, UniProt P00352)
- Sequence (P00352 1-501): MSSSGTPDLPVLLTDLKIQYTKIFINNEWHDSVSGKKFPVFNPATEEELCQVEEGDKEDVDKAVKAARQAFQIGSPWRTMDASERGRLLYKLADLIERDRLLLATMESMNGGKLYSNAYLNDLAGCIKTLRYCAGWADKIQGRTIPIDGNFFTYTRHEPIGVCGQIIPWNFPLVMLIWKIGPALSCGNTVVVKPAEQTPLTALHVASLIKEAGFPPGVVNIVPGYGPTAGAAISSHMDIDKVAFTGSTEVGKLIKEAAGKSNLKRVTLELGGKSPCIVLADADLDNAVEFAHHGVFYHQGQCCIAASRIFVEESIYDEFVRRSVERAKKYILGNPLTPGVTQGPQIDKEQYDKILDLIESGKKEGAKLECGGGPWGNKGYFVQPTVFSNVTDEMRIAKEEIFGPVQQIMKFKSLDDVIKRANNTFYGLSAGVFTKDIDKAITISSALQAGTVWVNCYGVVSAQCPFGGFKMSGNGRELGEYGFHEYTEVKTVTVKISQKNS
- Assay summary: ALDH1A1 enzymatic assay (in vitro)
- Type: biochemical
- Conditions: ALDH1A1 enzyme 20 nM, NAD+ 1 mM, propionaldehyde 80 μM; read-out: ALDH1A1 IC50
pIC50: −log10 of the molar value. Counter-ions that a name gives are not always drawn.
Property measured: pIC50

COc1c(F)cc2c(N3CCC4(CC3)OCCO4)c(C(=O)N3CCN(C(=O)C4CC4)CC3)cnc2c1F ... > 6.30

Requested read-out: pIC50. Entry: CC(C)NC(=O)N1CCN(C(=O)c2cnc3ccc(F)cc3c2N2CCC(C)(C#N)CC2)CC1
5.00 to 6.00

Form field: reported pIC50 of CS(=O)(=O)N1CCN(C(=O)c2cnc3ccc(F)cc3c2N2CCN(S(C)(=O)=O)CC2)CC1
5.00 to 6.00

Quick one: pIC50 for COc1ccc2ncc(C(=O)N3CCN(C(=O)C4CC4)CC3)c(N3CCN(S(C)(=O)=O)CC3)c2c1 [Example 19, TFA] ?
5.00 to 6.00
